FYI, the data here is from paper PMC12040169.

experiment: in vitro; conditions: human, hela cells, % viability
viability at 28.5 h, 10 µM: recorded values
Your answer is read as %, so omit the unit and give the number.

Solved cases below.
In: Which viability at 28.5 h, 10 µM value belongs to c1ccc(N2CCC(CNCc3c[nH]nc3-c3cccnc3)C2)cc1 (stereo not drawn) ?
Out: 88.7

In: Which viability at 28.5 h, 10 µM value belongs to `COC(=O)c1ccsc1NS(=O)(=O)c1ccc(Oc2ccccc2)cc1` ?
Out: 108

In: Which viability at 28.5 h, 10 µM value belongs to `O=C(O)CCC(=O)NNC(=O)c1ccc(O)cc1` ?
Out: 105

In: Which viability at 28.5 h, 10 µM value belongs to `Cc1cc(NC(=O)c2sc3nc4c(cc3c2N)N2CCC4CC2)no1` ?
Out: 100

In: Which viability at 28.5 h, 10 µM value belongs to CC(C(=O)Nc1ccc(S(N)(=O)=O)cc1)N(C)Cc1cccs1 (stereo not drawn) ?
Out: 88.8

---
In: Which viability at 28.5 h, 10 µM value belongs to `COc1ccc(C(=O)OC(C)(C)C)c(-c2nccnc2N[C@@H](C)c2ccccc2)c1` ?
Out: 94.2

In: Which viability at 28.5 h, 10 µM value belongs to `COc1ccc(N2CCN(Cc3cc([N+](=O)[O-])ccc3Cl)CC2)cc1` ?
Out: 88.9

In: Which viability at 28.5 h, 10 µM value belongs to `COc1ccc([C@@]2(O)CC[C@@H]3CN(C(=O)C4CCCC4)C[C@@H]32)cc1` ?
Out: 85

In: Which viability at 28.5 h, 10 µM value belongs to `CN1CCC2(CC1)CC(=O)c1cc(-c3ccc(C(=O)N(C)CCC#N)cc3)ccc1O2` ?
Out: 89
